Molecular target: Gal4-HNF4α (human HNF4α LBD) (Homo sapiens)
Construct: uniprot entry: P41235-1, residues 142-377; expressed in transfected cells; host or cells: HEK293T
Sequence (P41235 142-377): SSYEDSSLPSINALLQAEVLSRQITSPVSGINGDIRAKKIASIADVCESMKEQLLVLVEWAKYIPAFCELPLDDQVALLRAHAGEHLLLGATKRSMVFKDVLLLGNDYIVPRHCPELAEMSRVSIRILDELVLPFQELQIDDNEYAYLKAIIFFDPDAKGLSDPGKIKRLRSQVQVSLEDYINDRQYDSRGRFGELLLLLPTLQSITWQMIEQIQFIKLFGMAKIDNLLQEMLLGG
Test: Hybrid Gal4-HNF4α reporter gene assay in transiently transfected HEK293T cells
Assay type: cell-based
Conditions: Table S1, primary screening, 50 µM
readoutLabel: HNF4a-screening_activity_(mean_of_n=2)
Could you respond with only the numeric value?

Prompt: Can you look up the measured HNF4a-screening_activity_(mean_of_n=2) of Nc1ncnc2c1ncn2CCO [Prestw-Frag-3329, Nc1ncnc2n(CCO)cnc12] for me?
Completion: 1.131

Prompt: Recorded HNF4a-screening_activity_(mean_of_n=2) for COC(=O)C(O)c1ccccc1 (stereo not drawn) [Prestw-Frag-2423, COC(=O)C(O)c1ccccc1] , please?
Completion: 1.193

Prompt: Quick one: HNF4a-screening_activity_(mean_of_n=2) for O=C(O)c1cccnc1Nc1ccccc1 [Prestw-Frag-1191, OC(=O)c1cccnc1Nc1ccccc1] ?
Completion: 1.24

Prompt: Quick one: HNF4a-screening_activity_(mean_of_n=2) for Oc1ccc2cc[nH]c2c1 [Prestw-Frag-1374, Oc1ccc2cc[nH]c2c1] ?
Completion: 1.128

Prompt: # get_value(readout='HNF4a-screening_activity_(mean_of_n=2)', item= N=C(N)NC(=N)Nc1ccc(Cl)cc1 [Prestw-Frag-2722, NC(=N)NC(=N)Nc1ccc(Cl)cc1] )
Completion: 0.8665

Prompt: Quick one: HNF4a-screening_activity_(mean_of_n=2) for Nc1ncns1 [compound 7, Nc1ncns1] ?
Completion: 2.362

Prompt: Given the entry c1nc(C2CCNCC2)c[nH]1 [Prestw-Frag-3753, C1CC(CCN1)c1c[nH]cn1] , report its measured HNF4a-screening_activity_(mean_of_n=2).
Completion: 0.9547

Prompt: Which HNF4a-screening_activity_(mean_of_n=2) reading was recorded for the compound c1ccc(C2CCCNCC2)cc1 (stereo not drawn) [Prestw-Frag-3712, C1CNCCC(C1)c1ccccc1] ?
Completion: 1.122

Prompt: Name the reported HNF4a-screening_activity_(mean_of_n=2) value associated with the compound COc1ccc2c(c1)CCCC2 [Prestw-Frag-3188, COc1ccc2CCCCc2c1]
Completion: 0.8877

Prompt: # get_value(readout='HNF4a-screening_activity_(mean_of_n=2)', item= c1ccc(N2CCN(c3ccccc3)CC2)cc1 [Prestw-Frag-3257, C1CN(CCN1c1ccccc1)c1ccccc1] )
Completion: 1.063

Prompt: // query HNF4a-screening_activity_(mean_of_n=2) value for entry Cc1nc(-c2ccccc2F)cs1 [Prestw-Frag-3745, Cc1nc(cs1)-c1ccccc1F]
Completion: 1.103

Prompt: Quick one: HNF4a-screening_activity_(mean_of_n=2) for CNC(=O)c1c(-c2ccccc2)noc1C [Prestw-Frag-3690, CNC(=O)c1c(C)onc1-c1ccccc1] ?
Completion: 0.8222

Prompt: # get_value(readout='HNF4a-screening_activity_(mean_of_n=2)', item= Nc1ccnn1-c1ccccc1 [Prestw-Frag-1648, Nc1ccnn1-c1ccccc1] )
Completion: 1.023

Prompt: What value of measured HNF4a-screening_activity_(mean_of_n=2) is listed for COc1ccc2c(c1)CCC(C(=O)O)C2 (stereo not drawn) [Prestw-Frag-3739, COc1ccc2CC(CCc2c1)C(O)=O] ?
Completion: 0.6963

Prompt: I am curious: what HNF4a-screening_activity_(mean_of_n=2) value has been reported for CNC(C)(C)Cc1ccccc1 [Prestw-Frag-1141, CNC(C)(C)Cc1ccccc1] ?
Completion: 1.206

Prompt: Look up HNF4a-screening_activity_(mean_of_n=2): OCc1ccc(O)cc1 [Prestw-Frag-2532, OCc1ccc(O)cc1]
Completion: 1.028

Prompt: Give its HNF4a-screening_activity_(mean_of_n=2) value. Item: Nc1ccc2c(c1)CCCC2 [Prestw-Frag-3682, Nc1ccc2CCCCc2c1]
Completion: 0.958

Prompt: For the compound shown here, O=C1CCCc2[nH]ccc21 [Prestw-Frag-2675, O=C1CCCc2[nH]ccc12] , give the reported HNF4a-screening_activity_(mean_of_n=2).
Completion: 1.012
